The values you see were collected from patent US20220273659A1.

Test system: CDK6 (Homo sapiens, UniProt Q00534)
Sequence (Q00534 whole entry): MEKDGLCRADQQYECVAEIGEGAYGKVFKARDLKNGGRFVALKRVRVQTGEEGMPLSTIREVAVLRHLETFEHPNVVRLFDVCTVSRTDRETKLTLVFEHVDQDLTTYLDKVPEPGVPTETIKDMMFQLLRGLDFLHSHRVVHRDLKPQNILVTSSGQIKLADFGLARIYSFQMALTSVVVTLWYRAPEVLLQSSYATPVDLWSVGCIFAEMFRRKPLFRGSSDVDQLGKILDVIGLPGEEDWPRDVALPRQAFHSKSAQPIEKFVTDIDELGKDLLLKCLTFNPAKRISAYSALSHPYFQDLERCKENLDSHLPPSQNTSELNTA
Sequence (P24385 whole entry partner): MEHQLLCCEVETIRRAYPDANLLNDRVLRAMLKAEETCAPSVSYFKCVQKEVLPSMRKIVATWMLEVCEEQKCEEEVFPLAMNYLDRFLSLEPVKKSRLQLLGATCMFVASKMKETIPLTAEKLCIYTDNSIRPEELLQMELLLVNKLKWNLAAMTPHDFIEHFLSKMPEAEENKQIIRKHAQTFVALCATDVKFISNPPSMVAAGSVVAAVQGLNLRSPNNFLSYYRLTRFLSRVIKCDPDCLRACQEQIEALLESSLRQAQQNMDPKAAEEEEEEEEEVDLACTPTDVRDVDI
Assay overview: In vitro kinase inhibition IC50, luminescence (ADP Glo), retinoblastoma substrate
Run conditions: read-out: CDK6/D1 IC50
# IC50 annotations
Express it in nM; write the number only.

Below: 4 compounds and their reported IC50.
{"Structure smiles string": "CC(=O)N1CCc2cc(Nc3ncc4cc(C#N)c(=O)n(C5CCCC5)c4n3)ccc2C1", "Test system": "CDK6 (Homo sapiens, UniProt Q00534)", "IC50 [nM]": 5}
{"Structure smiles string": "CS(=O)(=O)N1CCC(Nc2ncc3cc(C4CC4)c(=O)n(C4CCCC4)c3n2)CC1", "Test system": "CDK6 (Homo sapiens, UniProt Q00534)", "IC50 [nM]": 67}
{"Structure smiles string": "N#Cc1cc2cnc(Nc3ccc(N4CCNCC4)cc3F)nc2n(C2CCCC2)c1=O", "Test system": "CDK6 (Homo sapiens, UniProt Q00534)", "IC50 [nM]": 6}
{"Structure smiles string": "CN(C)CC(=O)N1CCc2ccc(Nc3ncc4cc(C#N)c(=O)n(C5CCCC5)c4n3)cc2C1", "Test system": "CDK6 (Homo sapiens, UniProt Q00534)", "IC50 [nM]": 4}

Query: What does the data say about its IC50? Entry: `CC(C)N1CCc2cc(Nc3ncc4cc(C#N)c(=O)n(C5CCCC5)c4n3)ccc2C1`
Response: 19
